Data origin: the RNAGym collection of RNA variant scans (doi:10.7554/elife.90254)

B1: LINE1-full (parent)
chain: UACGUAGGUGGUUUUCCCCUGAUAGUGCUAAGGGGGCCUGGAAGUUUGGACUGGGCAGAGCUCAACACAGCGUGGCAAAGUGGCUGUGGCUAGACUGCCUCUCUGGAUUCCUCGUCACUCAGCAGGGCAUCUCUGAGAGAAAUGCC

- Variants of: B1
- Test Method Notes: self-cleavage, relative activity (ratio to wild type); higher = more cleavage; in vitro, sequencing; the parent is a self-cleaving ribozyme
List of self-cleavage values.
Lab note: jot the number down without any unit.

// below: answered variants
- UACGUAGGUGGUUUUCCCCUGAUAGUGCUAAGGGGGCCUGGAAGUUUGGACUGGGCAGAGCUCAACACAGCGUGGCAAAGUGGCUGUGGCUAGACUGCCUCACUGGAUUCCUAGUCACUCAGCAGGGCAUCUCUGAGAGAAAUGCC: 0.97
- UACGUAGGUGGUUUUCCCCUGAUAGUGCUAAGGGGGCCUGGAAGUUUGGACUGGGCAGAGCUCAACACAGUGUGGCAAAGUGGCUGUGGCUAGACUGCCACUCUGGAUUCCUCGUCACUCAGCAGGGCAUCUCUGAGAGAAAUGCC: 0.04
- UACGUAGGUGGUUUUCCCCUGAUAGUGCGAAGGGGGCCUGGAAGUUUGGACUGGGCAGAGCUCAACACAGCGUGGCAAAGUGGCUGUGGCUAGACUGCCUCUCUGGACUCCUCGUCACUCAGCAGGGCAUCUCUGAGAGAAAUGCC: 0.54
- UACGUAGGUGGUUUUCCCCUGAUAGUGCUAAGGGGGCCUGGAAGUUUGGACUGGGCAGAGCUCGACACAGCGUGGCAAAGUGGCUGUGGCUAGACUGCCUCUCUGGAUUCCUCUUCACUCAGCAGGGCAUCUCUGAGAGAAAUGCC: 0.24
- UACGUAGGUGGUUUUCCCCUGAUAGUGCUAAGGGGGCCUGGAAGUUUGGACUGGGCAGAGCUCAACACAGCGUGGUAAAGUGGCUGUGGCUAGACUGCCUCUCUGGAUUCCUCGUCACUCAGCAGGGCAUCCCUGAGAGAAAUGCC: 1.8
- UACGUAGGUGGUUUUCCCCUGAUAGUGCUAAGGGGGCCUGGAAGUUUGGACUGGGCAGGGCUCAACACAGCGUGGCAAAGUGGCUGUGGCUAGACUGCCUCUCUGGAUUCCUCGUCACUCAGCAGGGCAUCUGUGAGAGAAAUGCC: 0.12

Q: Query: self-cleavage; subject: `UACGUAGGUGGUUUUCCCCUGAUAGUGCUAAAGGGGCCUGGAAGUUUGGACUGGGCAGAGCUCAACACUGCGUGGCAAAGUGGCUGUGGCUAGACUGCCUCUCUGGAUUCCUCGUCACUCAGCAGGGCAUCUCUGAGAGAAAUGCC`
Ans: 0.02

Q: Query: self-cleavage; subject: `UACGUAGGUGGUUUUCCCCUGAUAGUGCUAAGGGGGCCUGGAAGUUUGGACUGGGCAGAGCUCAACACAGCGUGGCAAAGUGGCUGUUGCUAGACUGCCUCUCUGGAUUCCUCGUCACUCAGCAGGGCAUCUCUGAGAGGAAUGCC`
Ans: 0.04

Q: Query: self-cleavage; subject: `UACGUAGGUGGUUUUCCCCUGAUAGUGCUAAGUGGGCCUGGAGGUUUGGACUGGGCAGAGCUCAACACAGCGUGGCAAAGUGGCUGUGGCUAGACUGCCUCUCUGGAUUCCUCGUCACUCAGCAGGGCAUCUCUGAGAGAAAUGCC`
Ans: 0.64

Q: Query: self-cleavage; subject: `UACGUAGGUGGUUUUCCCCUGAUAGUGCUAAGGGGGCCUGGAAGUUUGGACCGGGCAGAGCUCAACACAGCGUGGCAAAGUGGCUGUGGCUAGACUGCCUCUCUGGAUUCCUCGUCACUCAGCAGGGCAACUCUGAGAGAAAUGCC`
Ans: 1.04
